Test system: KM12 colon
Assay: NCI-60 one-dose screen, 48 h
Conditions: 10 µM unless noted
This is part of a sample that, as a whole, favours compounds with a hit. Of some 83,000 tested, about 20% had one in any assay. Active and inactive are the calls of the source. Rule for the calls: active = growth percent below 10; inactive = the rest.
I would appreciate it if you answered using one of these outcomes: active, inactive

{"columns": ["molecule", "test-system", "qualitative-label"],
 "data": [
  ["C#Cc1cccc(NC(=O)c2ccc(NC(=O)CCl)cc2)c1", "KM12 colon", "inactive"]
]}

Assay outcome for `COc1ccc2c(c1)[nH]c(=O)c1c3cccnc3cn21` : what was it?
inactive

Assay outcome for `Cc1ccc2c(c1)Sc1c(ccc3ccccc13)N2` : what was it?
inactive

Assay outcome for `NC(=O)c1ccc[n+]([C@@H]2O[C@H](COP(=O)([O-])OP(=O)(O)OC[C@H]3O[C@@H](n4cnc5c(N)ncnc54)[C@H](O)[C@@H]3O)[C@@H](O)[C@H]2O)c1` : what was it?
inactive

Assay outcome for CC1(C)CC(=O)C2=C(C1)N(c1ccc(OC(F)(F)F)cc1)C(N)=C(C#N)C2c1ccc(Cl)cc1 (centres undefined) : what was it?
inactive

Assay outcome for `NC(=O)c1ccc[n+](Cc2ccc(Cl)cc2Cl)c1` : what was it?
inactive

Assay outcome for `O=S(=O)(NCCCNc1cc(-c2c(-c3cccc(O)c3)nc3sccn23)ccn1)c1cccc(Cl)c1` : what was it?
inactive

Assay outcome for `c1c[nH]c(CNC2CCCCC2)c1` : what was it?
inactive

Assay outcome for CC(=O)OC[C@H]1OC(Sc2sc(C(=O)c3ccc(Br)cc3)c(N)c2-c2nc3ccccc3s2)[C@H](OC(C)=O)[C@@H](OC(C)=O)[C@@H]1OC(C)=O (some centres undefined) : what was it?
inactive

Assay outcome for CN(c1ccccc1)c1ccc2c(c1)OCCC21CC1Nc1cnccc1C(=O)O (centres undefined) : what was it?
inactive

Assay outcome for `O=c1c2cc(F)ccc2sc2c(NCCCN3CCCC3)nc3ccccc3c12` : what was it?
inactive
